biological target: Adenosine receptor A2a (Mus musculus); experiment: Displacement of [3H]2-[p-(2-carboxyethyl)phenyl-ethylamino]-5'-N-ethylcarboxamidoadenosine from mouse recombinant adenosine A2A receptor expressed in HEK293 cells
Sequence (Q60613 whole entry): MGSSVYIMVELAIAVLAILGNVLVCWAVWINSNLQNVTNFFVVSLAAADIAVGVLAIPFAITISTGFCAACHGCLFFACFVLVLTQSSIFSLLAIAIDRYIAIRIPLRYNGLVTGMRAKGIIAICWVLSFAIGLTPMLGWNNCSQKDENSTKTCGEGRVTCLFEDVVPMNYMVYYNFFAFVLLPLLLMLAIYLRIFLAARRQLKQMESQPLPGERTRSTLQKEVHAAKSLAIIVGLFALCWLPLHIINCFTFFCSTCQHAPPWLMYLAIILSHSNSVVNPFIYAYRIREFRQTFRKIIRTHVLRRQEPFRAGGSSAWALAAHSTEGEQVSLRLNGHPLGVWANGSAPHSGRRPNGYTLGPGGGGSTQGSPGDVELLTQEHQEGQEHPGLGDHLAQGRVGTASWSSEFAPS
recorded_metric: Ki (µM)
Answers are plain numbers, in µM.

Field: example entries. Status: answers known.
>  <compound>
CNC(=O)C12C[C@@H]1[C@@H](n1cnc3c(NC4CC4c4ccccc4)nc(Cl)nc31)[C@H](O)[C@@H]2O (single isomer, unassigned)

>  <measurement_target>
Adenosine receptor A2a (Mus musculus)

>  <unit_name>
µM

>  <Ki>
38.2

$$$$
>  <compound>
CNC(=O)C12C[C@@H]1[C@@H](n1cnc3c(NCC(c4ccccc4)c4ccccc4)nc(Cl)nc31)[C@H](O)[C@@H]2O (single isomer, unassigned)

>  <measurement_target>
Adenosine receptor A2a (Mus musculus)

>  <unit_name>
µM

>  <Ki>
1.81

$$$$
>  <compound>
CNC(=O)[C@H]1O[C@@H](n2cnc3c(NCc4cccc(I)c4)ncnc32)[C@H](O)[C@@H]1O [IB-MECA]

>  <measurement_target>
Adenosine receptor A2a (Mus musculus)

>  <unit_name>
µM

>  <Ki>
1

$$$$
>  <compound>
CNC(=O)C12C[C@@H]1[C@@H](n1cnc3c(NCc4cccc(Br)c4)nc(Cl)nc31)[C@H](O)[C@@H]2O (single isomer, unassigned)

>  <measurement_target>
Adenosine receptor A2a (Mus musculus)

>  <unit_name>
µM

>  <Ki>
6.39

$$$$
>  <compound>
CNC(=O)[C@H]1O[C@@H](n2cnc3c(NCc4cccc(I)c4)nc(Cl)nc32)[C@H](O)[C@@H]1O [NAMODENOSON]

>  <measurement_target>
Adenosine receptor A2a (Mus musculus)

>  <unit_name>
µM

>  <Ki>
10

$$$$

Field: Ki. Fill in for each record below.
1. CNC(=O)[C@@]12C[C@@H]1[C@@H](n1cnc3c(NCc4cccc(Cl)c4)nc(Cl)nc31)[C@H](O)[C@@H]2O
2. CNC(=O)[C@@]12C[C@@H]1[C@@H](n1cnc3c(NCc4cccc(I)c4)nc(Cl)nc31)[C@H](O)[C@@H]2O
3. CNC(=O)C12C[C@@H]1[C@@H](n1cnc3c(NCc4cc(OC)ccc4OC)nc(Cl)nc31)[C@H](O)[C@@H]2O (single isomer, unassigned)

[10.4, 5.35, 44.7]
